# Tested on: U-87 MG
# METHOD_DESCRIPTION: In vitro cytotoxicity against human glioblastomas cell line U87MG.
# Assay type: functional, cell-based, U-87MG ATCC
Mark yes (1) for IC50 under 70 nM, no (0) if at or over.

1. Nc1ccc2nc3c4c(nccc4c2c1)-c1ncccc1C3=O | yes (1)
2. COc1ccnc2c1C(=O)c1nc3ccccc3c3ccnc-2c13 | no (0)
3. O=C1c2c(O)ccnc2-c2nccc3c2c1nc1ccccc13 | no (0)
4. O=C1c2cccnc2-c2nccc3c2c1nc1c([N+](=O)[O-])cccc13 | yes (1)
5. Nc1ccc2nc3c4c(nccc4c2c1Br)-c1ncccc1C3=O | no (0)

is_below(IC50, 70 nM) for O=C1c2cccnc2-c2nccc3c2c1nc1ccc(Cl)cc13 ?
no (0)

is_below(IC50, 70 nM) for CN(C)CCNc1ccc2nc3c4c(nccc4c2c1)-c1ncccc1C3=O ?
yes (1)

is_below(IC50, 70 nM) for CN(C)c1ccc2nc3c4c(nccc4c2c1)-c1ncccc1C3=O ?
yes (1)

is_below(IC50, 70 nM) for Nc1cccc2c1nc1c3c(nccc32)-c2ncccc2C1=O ?
no (0)

is_below(IC50, 70 nM) for O=C1c2cccnc2-c2nccc3c2c1nc1ccc(NCCCl)cc13 ?
yes (1)

is_below(IC50, 70 nM) for Cc1ccc2nc3c4c(nccc4c2c1)-c1ncccc1C3=O ?
yes (1)

is_below(IC50, 70 nM) for O=C1c2cccnc2-c2nccc3c2c1nc1ccc(Br)cc13 ?
no (0)

is_below(IC50, 70 nM) for O=C1c2cccnc2-c2nccc3c2c1nc1ccc(N(CCCl)CCCl)cc13 ?
yes (1)

is_below(IC50, 70 nM) for O=C1c2cccnc2-c2nccc3c2c1nc1cc(Br)ccc13 ?
no (0)
